Provide the reported inhibition in vivo at 0.04 mg/kg of each item.
Test system: Mus musculus
Assay: Antinociceptive activity in mouse as reduction in acetic acid-induced writhes at 0.04 mg/kg,ip relative to control
Format: functional
Enter your answer as a number in %; do not include the unit.

Annotate the compound C=C1[C@@H]2CC[C@@H]3C[C@]2(C=C3CO)C[C@@H](O)[C@@]2(O)[C@H]1C[C@H](O)C2(C)C with its measured inhibition in vivo at 0.04 mg/kg.
56.3

Annotate the compound CC1(C)[C@@H](O)[C@H](O)[C@H]2[C@](C)(O)[C@@H]3CC[C@@H]4[C@@H](O)[C@@]3(C[C@@H](O)[C@@]21O)C[C@@]4(C)O with its measured inhibition in vivo at 0.04 mg/kg.
88.7

Annotate the compound CO[C@H]1[C@H](O)C(C)(C)[C@@]2(O)[C@H](O)C[C@]34C[C@@](C)(O)[C@H](CC[C@H]3[C@@](C)(O)[C@H]12)[C@H]4O with its measured inhibition in vivo at 0.04 mg/kg.
59.1

Annotate the compound CC1=C[C@@]23C[C@@H](O)[C@@]4(O)[C@@H]([C@@H](O)[C@H](O)C4(C)C)[C@](C)(O)[C@@H]2CC[C@@H]1[C@H]3O with its measured inhibition in vivo at 0.04 mg/kg.
61.9

The reported measurements were obtained from ChEMBL document CHEMBL4414671.
